# experimental.system: DPP8/9 (Homo sapiens, UniProt Q6V1X1+Q86TI2)
# method: Inhibition of recombinant human DPP8/9 expressed in Rosetta cells at 10 uM using Gly-Pro-p-nitroanilide as substrate incubated for 1 hr relative to control
# condition.set: probe Gly-Pro-p-nitroanilide
inhibition at 1 h, 10 µM listing for selected molecules.
I only need the number, in %, no unit after it.

Reference set (6 entries):
input.smiles: CC#CCn1c(N2CCC[C@@H](N)C2)nc2c1c(=O)n(CCCN1CCN(c3nc(-c4ccccc4)no3)CC1)c(=O)n2C
inhibition at 1 h, 10 µM, %: 0
--
input.smiles: CC#CCn1c(N2CCC[C@@H](N)C2)nc2c1c(=O)n(CCCN1CCN(c3cc(C)nn3-c3ccccc3)CC1)c(=O)n2C
inhibition at 1 h, 10 µM, %: 15.4
--
input.smiles: CC#CCn1c(N2CCC[C@@H](N)C2)nc2c1c(=O)n(CCCN1CCC(c3nnnn3-c3ccccc3)CC1)c(=O)n2C
inhibition at 1 h, 10 µM, %: 4.6
--
input.smiles: CC#CCn1c(N2CCC[C@@H](N)C2)nc2c1c(=O)n(CCCN1CCC(c3nc(-c4ccccc4)c[nH]3)CC1)c(=O)n2C
inhibition at 1 h, 10 µM, %: 5.1
--
input.smiles: CC#CCn1c(N2CCC[C@@H](N)C2)nc2c1c(=O)n(CCCN1CCC(c3nc(-c4ccccc4)cs3)CC1)c(=O)n2C
inhibition at 1 h, 10 µM, %: 2.2
--
input.smiles: CC#CCn1c(N2CCC[C@@H](N)C2)nc2c1c(=O)n(CCCN1CCN(c3nc(-c4ccccc4)cs3)CC1)c(=O)n2C
inhibition at 1 h, 10 µM, %: 0

Lab note: next molecule to report on.
The molecule CC#CCn1c(N2CCC[C@@H](N)C2)nc2c1c(=O)n(CCCN1CCC(c3ncc(-c4ccccc4)o3)CC1)c(=O)n2C , tested on DPP8/9 (Homo sapiens, UniProt Q6V1X1+Q86TI2), showed inhibition at 1 h, 10 µM of 3.3

----------
# experimental.system: DPP8/9 (Homo sapiens, UniProt Q6V1X1+Q86TI2)
# method: Inhibition of recombinant human DPP8/9 expressed in Rosetta cells at 10 uM using Gly-Pro-p-nitroanilide as substrate incubated for 1 hr relative to control
# condition.set: probe Gly-Pro-p-nitroanilide
inhibition at 1 h, 10 µM listing for selected compounds.
Answer format reminder: number followed by unit.

Reference set (3 entries):
input.smiles: CC#CCn1c(N2CCC[C@@H](N)C2)nc2c1c(=O)n(CCCN1CCC(c3cc(-c4ccccc4)on3)CC1)c(=O)n2C
inhibition at 1 h, 10 µM: 3.3%

input.smiles: CC#CCn1c(N2CCC[C@@H](N)C2)nc2c1c(=O)n(CCCN1CCC(n3cc(-c4ccccc4)nn3)CC1)c(=O)n2C
inhibition at 1 h, 10 µM: 0%

input.smiles: CC#CCn1c(N2CCC[C@@H](N)C2)nc2c1c(=O)n(CCCN1CCN(c3nc(-c4ccccc4)ns3)CC1)c(=O)n2C
inhibition at 1 h, 10 µM: 1.6%

Record summary for CC#CCn1c(N2CCC[C@@H](N)C2)nc2c1c(=O)n(CCCN1CCN(c3nnc(-c4ccccc4)[nH]3)CC1)c(=O)n2C : reported inhibition at 1 h, 10 µM = 7.3%

----------
# method: Plasma protein binding in dog at 5 uM after 5 hrs by LC-MS/MS based equilibrium dialysis method
# Format: ADME, cell-free, Canis lupus familiaris
# condition.set: read-out: PPB (converted)
observable: fraction unbound at 5 h, 5 µM
Form field (numeric): enter value without unit.

Record summary for CC#CCn1c(N2CCC[C@@H](N)C2)nc2c1c(=O)n(CCCN1CCN(c3nc(-c4ccccc4)no3)CC1)c(=O)n2C.Cl : reported fraction unbound at 5 h, 5 µM = 0.037

----------
# method: AUC(0 to infinity) in Sprague-Dawley rat plasma at 3 mg/kg, iv measured up to 24 hrs
# Format: ADME, organism-based
# Design: route intravenous, dose 3 mg/kg, time <=24
observable: AUC(0-inf) (ng·h/mL)
I only need the number, in ng·h/mL, no unit after it.

Record summary for CC#CCn1c(N2CCC[C@@H](N)C2)nc2c1c(=O)n(CCCN1CCN(c3nc(-c4ccccc4)no3)CC1)c(=O)n2C.Cl : reported AUC(0-inf) = 167

----------
# experimental.system: UniProt:Q8TDV5
# method: Agonist activity at CREB-LBD and Gal4-DBD fused recombinant human GPR119 expressed in HEK293 cells by firefly luciferase assay
EC50 listing for selected molecules.
I only need the number, in nM, no unit after it.

Reference set (2 entries):
input.smiles: CC#CCn1c(N2CCC[C@@H](N)C2)nc2c1c(=O)n(CCCN1CCN(c3ncc(C(F)(F)F)cn3)CC1)c(=O)n2C
EC50 [nM]: 4020

input.smiles: CC#CCn1c(N2CCC[C@@H](N)C2)nc2c1c(=O)n(CCCN1CCN(c3nc(-c4ccccc4)cs3)CC1)c(=O)n2C
EC50 [nM]: 650

Record summary for CC#CCn1c(N2CCC[C@@H](N)C2)nc2c1c(=O)n(CCCN1CCC(c3ncc(-c4ccccc4)o3)CC1)c(=O)n2C : reported EC50 = 830

Record summary for CC#CCn1c(N2CCC[C@@H](N)C2)nc2c1c(=O)n(CCCN1CCN(c3ncc(C)cn3)CC1)c(=O)n2C : reported EC50 = 2560

Record summary for CC#CCn1c(N2CCC[C@@H](N)C2)nc2c1c(=O)n(CCCN1CCN(c3nc(-c4ccccc4)no3)CC1)c(=O)n2C : reported EC50 = 1400

Record summary for CC#CCn1c(N2CCC[C@@H](N)C2)nc2c1c(=O)n(CCCN1CCC(c3nc(-c4ccccc4)cs3)CC1)c(=O)n2C : reported EC50 = 3130

----------
# experimental.system: Glucose-dependent insulinotropic receptor (Homo sapiens)
# Sequence (Q8TDV5 whole entry): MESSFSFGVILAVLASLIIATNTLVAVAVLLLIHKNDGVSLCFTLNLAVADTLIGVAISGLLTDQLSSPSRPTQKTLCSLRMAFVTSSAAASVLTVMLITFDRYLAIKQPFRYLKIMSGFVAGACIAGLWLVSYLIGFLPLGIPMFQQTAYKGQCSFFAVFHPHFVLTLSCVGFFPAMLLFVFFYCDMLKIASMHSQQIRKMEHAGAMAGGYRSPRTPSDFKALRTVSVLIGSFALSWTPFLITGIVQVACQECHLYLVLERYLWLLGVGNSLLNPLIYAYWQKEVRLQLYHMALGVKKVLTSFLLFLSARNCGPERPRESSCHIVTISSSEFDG
# method: Agonist activity at CREB-LBD and Gal4-DBD fused recombinant human GPR119 expressed in HEK293 cells by firefly luciferase assay
Label yes (1) when EC50 is strictly below 1000 nM; otherwise label no (0).

Some solved entries appear below for comparison.
input.smiles: CC#CCn1c(N2CCC[C@@H](N)C2)nc2c1c(=O)n(CCCN1CCN(c3ncc(OC)cn3)CC1)c(=O)n2C
experimental.system: Glucose-dependent insulinotropic receptor (Homo sapiens)
class.label: no (0)
--
input.smiles: CC#CCn1c(N2CCC[C@@H](N)C2)nc2c1c(=O)n(CCCN1CCC(c3nc(-c4ccccc4)c[nH]3)CC1)c(=O)n2C
experimental.system: Glucose-dependent insulinotropic receptor (Homo sapiens)
class.label: yes (1)
--
input.smiles: CC#CCn1c(N2CCC[C@@H](N)C2)nc2c1c(=O)n(CCCN1CCN(c3ncc(CCC)cn3)CC1)c(=O)n2C
experimental.system: Glucose-dependent insulinotropic receptor (Homo sapiens)
class.label: no (0)
--
input.smiles: CC#CCn1c(N2CCC[C@@H](N)C2)nc2c1c(=O)n(CCCN1CCN(c3ncc(CC)cn3)CC1)c(=O)n2C
experimental.system: Glucose-dependent insulinotropic receptor (Homo sapiens)
class.label: no (0)
--
input.smiles: CC#CCn1c(N2CCC[C@@H](N)C2)nc2c1c(=O)n(CCCN1CCN(c3nc(-c4ccccc4)ns3)CC1)c(=O)n2C
experimental.system: Glucose-dependent insulinotropic receptor (Homo sapiens)
class.label: no (0)
--
input.smiles: CC(C)c1noc(C2CCN(c3ncnc(Nc4ccc(S(C)(=O)=O)cc4F)c3[N+](=O)[O-])CC2)n1
experimental.system: Glucose-dependent insulinotropic receptor (Homo sapiens)
class.label: yes (1)
--
input.smiles: CC#CCn1c(N2CCC[C@@H](N)C2)nc2c1c(=O)n(CCCN1CCN(c3noc(-c4ccccc4)n3)CC1)c(=O)n2C
experimental.system: Glucose-dependent insulinotropic receptor (Homo sapiens)
class.label: no (0)

Please turn your attention to the following entry.
INPUT: # strict comparison: is reported EC50 < 1000 nM? input = CC#CCn1c(N2CCC[C@@H](N)C2)nc2c1c(=O)n(CCCN1CCN(c3ncc(F)cn3)CC1)c(=O)n2C
OUTPUT: no (0)

----------
# method: Tmax in ICR mouse plasma at 20 mg/kg, po measured up to 24 hrs
# Type: ADME, organism-based
observable: Tmax
Answer format reminder: number followed by unit.

Record summary for CC#CCn1c(N2CCC[C@@H](N)C2)nc2c1c(=O)n(CCCN1CCN(c3nc(-c4ccccc4)no3)CC1)c(=O)n2C : reported Tmax = 25.2 min
